This collection of values is drawn from paper PMC7826789.

Recorded Percent Control values for a group of molecules are listed next.
System: INSR
Details: Compound Concentration (nM):1000;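 also: KINOMEscan scanMAX binding as percent activity remaining versus control; lower means stronger binding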
Answer by giving the amount and then stating its unit.

Molecule | Result
COc1ccc2cc(-c3c(-c4ccncc4)nc(-c4ccc(S(C)(=O)=O)cc4C)n3C)ccc2c1 | 100%
COc1ccc2[nH]c3c4[nH]c5ccc(OC)cc5c4c4c(c3c2c1)C(=O)NC4=O [GW296115X] | 66%
Cl.O=C(Nc1ccc(Oc2ccc3[nH]c(NC(=O)c4ccco4)nc3c2)cc1)Nc1cc(C(F)(F)F)ccc1F [GW683134A] | 88%
COc1ccc(COc2ccc(Cc3cnc(N)nc3N)cc2OC)cc1 [GW632580X] | 69%
CCS(=O)(=O)c1ccc(OC)c(Nc2ncc(-c3cccc(OC)c3)o2)c1 [GW580509X] | 95%

I am curious: what Percent Control value has been reported for COc1cc2ncnc(Nc3ccc4c(cnn4Cc4ccccc4)c3)c2cc1OC.Cl [GW282449A] ?
100%

What value of Percent Control has been reported for the following molecule? NS(=O)(=O)c1ccc(N/N=C2\C(=O)Nc3ccc(C(=O)NCCc4c[nH]cn4)cc32)cc1 [GW300660X]
96%

Could you tell me which Percent Control is on file for CN1CCN(C(=O)c2ccc(NC(=O)Nc3ccc(N(C)c4ccnc(Nc5ccc(CS(C)(=O)=O)cc5)n4)cc3)cc2)CC1.Cl [GW830263A] ?
61%

---

Tested on: TRKB
Construct: gene NTRK2
Settings: Compound Concentration (nM):1000
Label condition met for high-side Percent Control (at or above 80%) and condition not met for low-side Percent Control (below it).

Compound | Label value
COc1ccc2cc(-c3c(-c4ccncc4)nc(-c4ccc(S(C)(=O)=O)cc4C)n3C)ccc2c1 | condition not met
COC(=O)Nc1nc2ccc(Oc3ccc(NC(=O)Nc4cc(C(F)(F)F)ccc4F)cc3)cc2s1.Cl [GW693917A] | condition not met
C/C(Nc1ccc(S(N)(=O)=O)cc1)=C1/C(=O)Nc2ccccc21 [GW335962X] | condition not met
NS(=O)(=O)c1ccc(N/N=C2\C(=O)Nc3ccc(C(=O)NCc4ccncc4)cc32)cc1 [GW300657X] | condition not met
COc1ccc2[nH]c3c4[nH]c5ccc(OC)cc5c4c4c(c3c2c1)C(=O)NC4=O [GW296115X] | condition not met
Cl.c1ccc(Cc2nc3ccc(Nc4ncnc5ccccc45)cc3[nH]2)cc1 [GR269666A] | condition met

// inclusive: Percent Control at least 80%? input: COc1cc(/C=N/Nc2ncnc3[nH]ncc23)ccc1O [GW578748X]
condition not met

API: above_or_equal(metric=Percent Control, cutoff=80%) for item NS(=O)(=O)c1ccc(N/N=C2\C(=O)Nc3ccc(Cl)cc32)cc1 [GW280670X]
condition met

Say whether COc1cc2ncnc(Nc3ccc4c(cnn4Cc4ccccc4)c3)c2cc1OC.Cl [GW282449A] shows Percent Control of 80% or more.
condition met

Kindly determine if Percent Control recorded for Nc1ncnc2occ(-c3ccc(NC(=O)Nc4cc(C(F)(F)F)ccc4F)cc3)c12 [GW770249X] is above or exactly 80%.
condition not met

Can COc1cc(C)c(N(C)C(=O)CN(C)C)cc1Nc1nc(Nc2cccc(F)c2C(N)=O)c2cc[nH]c2n1 be said to have Percent Control at or above 80%?
condition met

Check the entry COc1cc2ncn(-c3cc(O[C@H](C)c4ccccc4Cl)c(C(N)=O)s3)c2cc1OC [GSK237701A] : does Percent Control equal or exceed 80%?
condition not met

Is it the case that COc1ccc(COc2ccc(Cc3cnc(N)nc3N)cc2OC)cc1 [GW632580X] has Percent Control reaching or exceeding 80%?
condition not met

I'd appreciate it if you could say whether CCn1c(-c2nonc2N)nc2c(C#CC(C)(C)O)nc(OCCNC)cc21.Cl has Percent Control at least equal to 80%.
condition met

hey, is Percent Control for this one >= 80%? O=C1Nc2ccc(C(=O)c3ccco3)cc2C1=Cc1cc(Cl)c(O)c(Cl)c1 [GW406108X]
condition not met

Say whether CCS(=O)(=O)c1ccc(OC)c(Nc2ncc(-c3cccc(F)c3)o2)c1 [GW621970X] shows Percent Control of 80% or more.
condition not met

Would you say NS(=O)(=O)c1ccc(N/N=C2\C(=O)Nc3ccc(C(=O)NCCc4c[nH]cn4)cc32)cc1 [GW300660X] shows Percent Control at minimum 80%?
condition not met

---

Test system: EGFR(L747-T751del,Sins)
Conditions: Compound Concentration (nM):1000
Readout label: Percent Control (%)
Reply numerically in %, unit not repeated.

In the examples that follow, each entry is paired with its recorded Percent Control.
Compound | Percent Control / %
NS(=O)(=O)c1ccc(N/N=C2\C(=O)Nc3ccc(C(=O)NCCc4c[nH]cn4)cc32)cc1 [GW300660X] | 100
COc1cccc(-n2ncc3c(N/N=C/c4ccncc4)ncnc32)c1 [GW784752X] | 100
CCn1c(-c2nonc2N)nc2c(C#CC(C)(C)O)nc(OCCNC)cc21.Cl | 100
COc1cc2ncnc(Nc3ccc4c(cnn4Cc4ccccc4)c3)c2cc1OC.Cl [GW282449A] | 5.2
Cl.O=C(Nc1ccc(Oc2ccc3[nH]c(NC(=O)c4ccco4)nc3c2)cc1)Nc1cc(C(F)(F)F)ccc1F [GW683134A] | 100

Dear colleague, I am looking for the recorded Percent Control of the following compound: CCS(=O)(=O)c1ccc(OC)c(Nc2ncc(-c3cccc(F)c3)o2)c1 [GW621970X]
84

Tell me the measured Percent Control of COc1cccc(-c2c[nH]c3c(N/N=C/c4ccncc4)ncnc23)c1 [GW814408X] , please.
35

GET /values?readout=Percent Control&item= COc1cc(N2CCN(C(C)C)CC2)ccc1Nc1nc(Nc2ccc(F)cc2C(=O)NC[C@@H](O)CO)c2cc[nH]c2n1 [GSK1392956A]
94

---

Test system: RPS6KA5(Kin.Dom.2-C-terminal)
Conditions: Compound Concentration (nM):1000
In this section we review reported Percent Control values for a set of compounds.
Number only, in %; omit the unit.

Compound | Measured target | Percent Control, %
CC(C)COC(=O)c1ccc2c(c1)/C(=C/Nc1ccc(S(N)(=O)=O)cc1)C(=O)N2 [GW416981X] | RPS6KA5(Kin.Dom.2-C-terminal) | 66
COc1cccc(-n2ncc3c(N/N=C/c4ccncc4)ncnc32)c1 [GW784752X] | RPS6KA5(Kin.Dom.2-C-terminal) | 100
COc1cc(C)c(N(C)C(=O)CN(C)C)cc1Nc1nc(Nc2cccc(F)c2C(N)=O)c2cc[nH]c2n1 [GSK2219385] | RPS6KA5(Kin.Dom.2-C-terminal) | 90

Recorded Percent Control of C/C(Nc1ccc(S(N)(=O)=O)cc1)=C1/C(=O)Nc2ccccc21 [GW335962X] , please.
100

What value of measured Percent Control is listed for CCn1c(-c2nonc2N)nc2c(C#CC(C)(C)O)nc(OCCNC)cc21.Cl [GSK949675] ?
34

I have this compound here, CN1CCN(C(=O)c2ccc(NC(=O)Nc3ccc(N(C)c4ccnc(Nc5ccc(CS(C)(=O)=O)cc5)n4)cc3)cc2)CC1.Cl [GW830263A] , and I need its recorded Percent Control.
87

Name the reported Percent Control value associated with the compound CC1=C(C(=O)Nc2ccc3[nH]ncc3c2)C(c2ccc3ccccc3c2)CC(=O)N1 (centres unmarked) [GSK270822A]
64

Tell me the measured Percent Control of O=C(Nc1n[nH]c2nc(-c3ccc(O)cc3)c(Br)cc12)C1CC1 [SB-725317] , please.
43

Given COc1cccc(-c2c[nH]c3c(N/N=C/c4ccncc4)ncnc23)c1 [GW814408X] , state its recorded Percent Control.
100

// returns reported Percent Control for input NS(=O)(=O)c1ccc(N/N=C2\C(=O)Nc3ccc(C(=O)NCCc4c[nH]cn4)cc32)cc1 [GW300660X]
100

Any idea what its Percent Control is? The compound is COc1ccc(COc2ccc(Cc3cnc(N)nc3N)cc2OC)cc1 [GW632580X]
87

Reported Percent Control, compound COc1ccc2[nH]c3c4[nH]c5ccc(OC)cc5c4c4c(c3c2c1)C(=O)NC4=O [GW296115X] : ____
66

What Percent Control value was documented for this compound, CN(C)c1cc2c(Nc3ccc4c(cnn4Cc4ccccc4)c3)ncnc2cn1 [GW282974X] ?
92

Give the measured Percent Control of COc1ccccc1-c1cc(/C=C2\C(=O)Nc3ncc(Br)cc32)cc(Br)c1O [GW442130X] .
46

Fill in the blank: the reported Percent Control of CCS(=O)(=O)c1ccc(OC)c(Nc2ncc(-c3cccc(OC)c3)o2)c1 [GW580509X] is ____.
100

// lookup Percent Control for CCc1ccc(Oc2nccc(-c3c(-c4ccc(F)cc4)ncn3C3CCNCC3)n2)cc1 [SB-242719]
87

Looking for the measured Percent Control of Cl.O=S1CCN(Cc2ccc(-c3ccc4ncnc(Nc5ccc(OCc6ccccc6)c(F)c5)c4c3)o2)CC1 [GW576924A] , can you help?
100
